- Assayed Target: Serine/threonine-protein kinase D1 (Homo sapiens) (UniProt Q15139)
- Sequence (Q15139 whole entry, looked up): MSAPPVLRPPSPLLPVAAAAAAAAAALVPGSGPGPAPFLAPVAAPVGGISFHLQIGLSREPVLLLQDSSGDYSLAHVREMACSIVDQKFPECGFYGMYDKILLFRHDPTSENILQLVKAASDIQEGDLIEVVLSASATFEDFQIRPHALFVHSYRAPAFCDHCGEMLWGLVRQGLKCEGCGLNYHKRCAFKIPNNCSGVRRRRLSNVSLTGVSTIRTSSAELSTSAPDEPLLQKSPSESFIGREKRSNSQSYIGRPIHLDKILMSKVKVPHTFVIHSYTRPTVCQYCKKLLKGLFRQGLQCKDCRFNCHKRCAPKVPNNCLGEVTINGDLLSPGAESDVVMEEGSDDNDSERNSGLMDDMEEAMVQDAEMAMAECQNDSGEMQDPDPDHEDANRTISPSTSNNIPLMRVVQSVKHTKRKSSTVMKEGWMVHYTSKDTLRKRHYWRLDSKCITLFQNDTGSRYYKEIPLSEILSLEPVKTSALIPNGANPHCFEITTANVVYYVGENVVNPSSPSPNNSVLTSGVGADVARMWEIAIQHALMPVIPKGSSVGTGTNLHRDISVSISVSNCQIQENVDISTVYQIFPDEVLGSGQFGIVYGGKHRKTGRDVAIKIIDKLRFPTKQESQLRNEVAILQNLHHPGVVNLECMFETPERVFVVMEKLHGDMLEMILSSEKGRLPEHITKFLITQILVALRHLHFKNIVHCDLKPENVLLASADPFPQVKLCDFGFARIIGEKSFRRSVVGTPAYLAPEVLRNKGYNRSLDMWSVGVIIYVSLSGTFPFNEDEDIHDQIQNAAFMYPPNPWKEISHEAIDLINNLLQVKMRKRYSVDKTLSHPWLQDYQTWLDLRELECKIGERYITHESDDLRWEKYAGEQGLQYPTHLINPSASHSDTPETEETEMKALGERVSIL
- Assay Procedure: protein kinase D1 activity blockers – biochemical, fluorescence polarization, 140K library hits, repeat, confirmation (AID 1286)
- Experimental Context: PKD1 kinase, at 10 µM
Inconclusive results are not listed. Activity calls are given as the source filed them. The rule behind the calls is not given here.
Return exactly one item of active, inactive

Below, 2 molecules whose answers are already recorded.
1. Nc1nnc(SCCCC(=O)c2ccc(F)cc2)s1: inactive
2. O=C1NCCCc2c1oc1ccc(O)cc21: active

I'd appreciate the recorded outcome for Cc1occc1C(=O)NC(C)CCc1ccccc1 (stereo unspecified) from this test.
inactive

Now the molecule O=C(Nc1ccc(Cl)cc1)OCc1cn(-c2ccc(Cl)cc2)nn1
inactive

Also check Cn1c(=O)oc2cc(S(=O)(=O)N3CCN(Cc4ccc5c(c4)OCO5)CC3)ccc21
inactive

Similarly, O=C1CC(N2CCN(c3ccccc3Cl)CC2)C(=O)N1c1ccc(F)cc1 (stereo unspecified) ?
inactive
